biological target: Telomerase reverse transcriptase (Homo sapiens); assay: Inhibition of TERT in human H1299 cells assessed as residual transcriptional activity at 10 uM after 24 hrs by SEAP reporter gene assay; values are per cent of control
Please use 1.0 for residual activity under 80% and 0.0 for everything else, ties included.

molecule.smiles | target.desc | class.name
CC/C=C/c1nc2ccc3c(c2[nH]1)C(=O)c1ccccc1C3=O | Telomerase reverse transcriptase (Homo sapiens) | 1.0
CCCCCCCc1nc2ccc3c(c2[nH]1)C(=O)c1ccccc1C3=O | Telomerase reverse transcriptase (Homo sapiens) | 0.0
COc1ccc(OC)c(-c2nc3ccc4c(c3[nH]2)C(=O)c2ccccc2C4=O)c1 | Telomerase reverse transcriptase (Homo sapiens) | 1.0
CN(C)c1ccc(-c2nc3ccc4c(c3[nH]2)C(=O)c2ccccc2C4=O)cc1 | Telomerase reverse transcriptase (Homo sapiens) | 1.0

----------
tested on: MDA-MB-231; assay: Antiproliferative activity against human MDA-MB-231 cells assessed as cell growth at 10 uM; assay type: functional; conditions: read-out: Activity
Entries annotated with measured growth at 10 µM

molecule.smiles | growth at 10 µM [%]
O=C1c2ccccc2C(=O)c2c1ccc1nc(-c3ccc(Br)cc3)[nH]c21 | 92.3
CN(C)c1ccc(-c2nc3ccc4c(c3[nH]2)C(=O)c2ccccc2C4=O)cc1 | 94.4
O=C1c2ccccc2C(=O)c2c1ccc1nccnc21 | 81.4
COc1cc(-c2nc3ccc4c(c3[nH]2)C(=O)c2ccccc2C4=O)ccc1O | 87.9
CC1(C)Nc2ccc3c(c2N1)C(=O)c1ccccc1C3=O | 72.9
CCc1nc2ccc3c(c2[nH]1)C(=O)c1ccccc1C3=O | 78
N#Cc1ccc(-c2nc3ccc4c(c3[nH]2)C(=O)c2ccccc2C4=O)cc1 | 87.1
O=C1c2ccccc2C(=O)c2c1ccc1nc(-c3ccccc3)[nH]c21 | 81.4
O=C1c2ccccc2C(=O)c2c1ccc1nsnc21 | -17.3
Cc1ccc(-c2nc3ccc4c(c3[nH]2)C(=O)c2ccccc2C4=O)cc1 | 97.6
O=C1c2ccccc2C(=O)c2c1ccc1nc(-c3ccc4c(c3)OCO4)[nH]c21 | 107

----------
experiment: Cytotoxicity against human H1299 cells at 1 uM after 48 hrs by MTT assay; type: functional; details: NCI-H1299, 48 h
Entries annotated with measured viability at 1 µM

molecule.smiles | readout.unit | viability at 1 µM
Cc1ccc(-c2nc3ccc4c(c3[nH]2)C(=O)c2ccccc2C4=O)cc1 | % | 75
Cc1nc2ccc3c(c2nc1C)C(=O)c1ccccc1C3=O | % | 78
COc1ccc(OC)c(-c2nc3ccc4c(c3[nH]2)C(=O)c2ccccc2C4=O)c1 | % | 91
O=C1c2ccccc2C(=O)c2c1ccc1nccnc21 | % | 98
CCc1nc2ccc3c(c2[nH]1)C(=O)c1ccccc1C3=O | % | 88
CCCCc1nc2ccc3c(c2[nH]1)C(=O)c1ccccc1C3=O | % | 85

----------
assay: Antiproliferative activity against human RPMI8266 cells assessed as cell growth at 10 uM; assay type: functional; conditions: read-out: Activity

molecule.smiles | readout.unit | growth at 10 µM
CN(C)c1ccc(-c2nc3ccc4c(c3[nH]2)C(=O)c2ccccc2C4=O)cc1 | % | 78.4
O=C1c2ccccc2C(=O)c2c1ccc1nsnc21 | % | -28
COc1cc(-c2nc3ccc4c(c3[nH]2)C(=O)c2ccccc2C4=O)ccc1O | % | 81
O=C1c2ccccc2C(=O)c2c1ccc1nc(-c3ccc4c(c3)OCO4)[nH]c21 | % | 96.2
CCc1nc2ccc3c(c2[nH]1)C(=O)c1ccccc1C3=O | % | 56.2
O=C1c2ccccc2C(=O)c2c1ccc1nc(-c3ccccc3)[nH]c21 | % | 61.1
N#Cc1ccc(-c2nc3ccc4c(c3[nH]2)C(=O)c2ccccc2C4=O)cc1 | % | 114
O=C1c2ccccc2C(=O)c2c1ccc1nc(-c3ccc(Br)cc3)[nH]c21 | % | 95.2
CC1(C)Nc2ccc3c(c2N1)C(=O)c1ccccc1C3=O | % | 99.9
Cc1ccc(-c2nc3ccc4c(c3[nH]2)C(=O)c2ccccc2C4=O)cc1 | % | 91.5
